Tested on: CCRIS mutagenicity, Ames/micronucleus/aberration tests
Assay: CCRIS mutagenicity studies
Conditions: Test System: AMES SALMONELLA TYPHIMURIUM; Strain/Indicator: TA104; Metabolic Activation: NONE; Method: PREINCUBATION
Description: The CCRIS database contains chemical records with carcinogenicity, mutagenicity, tumor promotion, and tumor inhibition test results. It was developed by the National Cancer Institute (NCI). Data are derived from studies cited in primary journals, current awareness tools, NCI reports, and other sources. Test results have been reviewed by experts in carcinogenesis and mutagenesis. CCRIS provides historical information from the years 1985 - 2011. It is no longer updated. […]
Calls of active or inactive are those of the source. No rule for the calls is given here.
One label from this list, please: active, inactive

Example entries begin here.
{"columns": ["molecule", "experimental.target", "assigned.label"],
 "data": [
  ["COc1ccc(C=O)cc1OC", "CCRIS mutagenicity, Ames/micronucleus/aberration tests", "inactive"],
  ["Oc1c2c(c3c(ccc4c3ccc3ccc5ccccc5c34)c1O)O2", "CCRIS mutagenicity, Ames/micronucleus/aberration tests", "active"],
  ["CCCBr", "CCRIS mutagenicity, Ames/micronucleus/aberration tests", "inactive"],
  ["CCC[N+](=O)[O-]", "CCRIS mutagenicity, Ames/micronucleus/aberration tests", "inactive"],
  ["Oc1ccc(O)cc1", "CCRIS mutagenicity, Ames/micronucleus/aberration tests", "active"],
  ["COP(=O)(OC)C(O)C(Cl)(Cl)Cl (stereo not drawn)", "CCRIS mutagenicity, Ames/micronucleus/aberration tests", "active"],
  ["O=c1[nH]c(=O)n([C@H]2C[C@H](O)[C@@H](CO)O2)cc1CCCl", "CCRIS mutagenicity, Ames/micronucleus/aberration tests", "inactive"],
  ["Nc1nc(N)nc(-c2ccccc2)n1", "CCRIS mutagenicity, Ames/micronucleus/aberration tests", "inactive"],
  ["O=C1C=Cc2c(ccc3cc4ccccc4cc23)C1=O", "CCRIS mutagenicity, Ames/micronucleus/aberration tests", "inactive"],
  ["O=C1C=C(S(=O)(=O)O)c2ccccc2C1=O", "CCRIS mutagenicity, Ames/micronucleus/aberration tests", "active"]
]}

Hi team, can someone confirm the assay call for Oc1ccc(O)c2ccccc12 ?
active

Hi team, can someone confirm the assay call for Oc1ccccc1O ?
inactive

Hi team, can someone confirm the assay call for CC(O)/C=C/C=O (stereo not drawn) ?
active

Hi team, can someone confirm the assay call for C[C@@H]1Cc2c(Cl)cc(C(=O)NC(Cc3ccccc3)C(=O)O)c(O)c2C(=O)O1 (stereo partly drawn) ?
inactive

Hi team, can someone confirm the assay call for O=c1[nH]c(=O)n([C@H]2C[C@H](O)[C@@H](CO)O2)cc1CCCCl ?
inactive

Hi team, can someone confirm the assay call for CC(=O)OC(C)=O ?
inactive

Hi team, can someone confirm the assay call for O=C1CCCCCCCCCCCCCCO1 ?
inactive

Hi team, can someone confirm the assay call for C=CC(=O)NCO ?
inactive

---

System: CCRIS mutagenicity, Ames/micronucleus/aberration tests
Assay: CCRIS mutagenicity studies
Settings: Test System: AMES SALMONELLA TYPHIMURIUM; Strain/Indicator: TA98; Metabolic Activation: RAT, LIVER, S-9, AROCLOR 1254; Method: STANDARD PLATE
Activity calls are given as the source filed them. No rule for the calls is given here.
endpoint.name: mutagenic call

{"columns": ["compound", "endpoint.name", "value.reported"],
 "data": [
  ["CN(C)CCCN1c2ccccc2CCc2ccccc21", "mutagenic call", "inactive; negative"],
  ["O=C1c2ccc3ccccc3c2-c2c1ccc1ccccc21", "mutagenic call", "active; positive"],
  ["O=C(/C=C/c1ccc(Br)cc1)c1ccccc1", "mutagenic call", "inactive; negative"],
  ["N.N.O=C([O-])C1(C(=O)[O-])CCC1.[Pt+4]", "mutagenic call", "inactive; negative"],
  ["Cc1ccc2nc3n(C)c4ccc(C)cc4c(C)c-3c2c1", "mutagenic call", "active; positive"]
]}

What value of mutagenic call has been reported for the following compound? CCC(C)ON=O (configuration not stated)
inactive; negative

What value of mutagenic call has been reported for the following compound? O=C1c2ccccc2C(=O)c2c(O)ccc(O)c21
inactive; negative

What value of mutagenic call has been reported for the following compound? O=P(O)(O)OCC(O)CO (configuration not stated)
inactive; negative

Ref: PubChem BioAssay AID1259407
